# Study system: SHP2-C SH2
# Experimental details: SH2 binding enrichment of the phosphorylated peptide, bacterial display (enrichment ratio); higher = better substrate or ligand; peptides without Tyr show the background
Lab note: compare SH2 binding enrichment against 0.8. Equal or greater, write label 1. Smaller, write label 0.

Sample answers from the record:
>>> group_label("RGDIFYTSKLW [AKR1C3_Y81_E77G]")
"label 1"
>>> group_label("RLYARYFQGDL [PDK3_Y337]")
"label 0"
>>> group_label("QGLRLYRTHLA [BTK_Y617_P619T]")
"label 1"
>>> group_label("TRNVRYLTLDI [AKR1C2_Y305_N300T]")
"label 1"
>>> group_label("VNKGGYFSVNL [C3orf33_Y164_S160N]")
"label 0"
>>> group_label("MSRDIYSTDYY [NTRK1_Y676]")
"label 0"

## Task Tell me whether SH2 binding enrichment is at least 0.8 here: SENAFYLSPDI [COL6A3_Y2827]
## Result label 0

## Task # bool: SH2 binding enrichment of FDDDDYDTDFV [BLM_Y296] >= 0.8
## Result label 0

## Task Does the sequence EYGSGYPNDPK [RNASEH2A_Y210_D205E] have recorded SH2 binding enrichment that is 0.8 or more?
## Result label 0

## Task Form field: SH2 binding enrichment at least 0.8? Entry: AVPSLYASGRT [ACTA1_Y145_L142P]
## Result label 0

## Task Item KILTHYKRPHT [KMT2D_Y5349] with SH2 binding enrichment of 0.8 or above?
## Result label 1

## Task Has PPGRSYSPCDF [TNS1_Y793_Y796C_YF] a recorded SH2 binding enrichment greater than or equal to 0.8?
## Result label 1

## Task // inclusive: SH2 binding enrichment at least 0.8? input: QKINNYLTVPA [SLC9A1_Y683]
## Result label 0

## Task Check this sequence for SH2 binding enrichment at or above 0.8: PYYASYPPSPD [GDAP2_Y491_T489A]
## Result label 0

## Task Could you please find out whether YLEKYYKFGCR [NNMT_Y25_S29C] has SH2 binding enrichment that meets 0.8 or exceeds it?
## Result label 1

## Task Is the recorded value of SH2 binding enrichment equal to or greater than 0.8 for this sequence? PLQNTYNYNVL [SLC4A1_Y553_K551N]
## Result label 1

## Task Answer whether SH2 binding enrichment of AIGFEYSEINI [SIGLEC12_Y588_YF] is greater than or equal to 0.8.
## Result label 1

## Task Threshold query (SH2 binding enrichment >= 0.8) on DVELLYPVKEK [EPHX1_Y283]
## Result label 0

## Task Record FGYPGYQSKHY [TIMP3_Y177] ; criterion: SH2 binding enrichment no lower than 0.8. Met?
## Result label 0

## Task Dear colleague, could you confirm whether SVFNNYIQTLG [CTNND1_Y174_S171F] has SH2 binding enrichment at or above 0.8?
## Result label 1

## Task Is reported SH2 binding enrichment greater than or equal to 0.8 here: FDDIACIRKTL [PIK3CA_Y1021_Y1021C]
## Result label 0

## Task Determine whether this sequence has SH2 binding enrichment no lower than 0.8: MWGSDYVQLSR [MAP3K4_Y582]
## Result label 0

## Task Please indicate if the recorded SH2 binding enrichment for NSNSDYVDILP [SH2D1B_Y127_V130I] meets or exceeds 0.8.
## Result label 0

## Task # check: SH2 binding enrichment of LITTPYIGFLG [KCNQ1_Y267_L266P] is greater than or equal to 0.8
## Result label 1

## Task Form field: SH2 binding enrichment at least 0.8? Entry: SHSMRYFDTSV [HLA-C_Y31_A35S]
## Result label 1

## Task Does VLNKGYRMVVN [HINT1_Y94_G89V] have a reported SH2 binding enrichment of at least 0.8?
## Result label 0

## Task # bool: SH2 binding enrichment of ALAHKYQGGGG [HBB_Y146_H147Q] >= 0.8
## Result label 0

----------
# Study system: Hck (UniProt P08631)
# Sequence (P08631 whole entry, looked up): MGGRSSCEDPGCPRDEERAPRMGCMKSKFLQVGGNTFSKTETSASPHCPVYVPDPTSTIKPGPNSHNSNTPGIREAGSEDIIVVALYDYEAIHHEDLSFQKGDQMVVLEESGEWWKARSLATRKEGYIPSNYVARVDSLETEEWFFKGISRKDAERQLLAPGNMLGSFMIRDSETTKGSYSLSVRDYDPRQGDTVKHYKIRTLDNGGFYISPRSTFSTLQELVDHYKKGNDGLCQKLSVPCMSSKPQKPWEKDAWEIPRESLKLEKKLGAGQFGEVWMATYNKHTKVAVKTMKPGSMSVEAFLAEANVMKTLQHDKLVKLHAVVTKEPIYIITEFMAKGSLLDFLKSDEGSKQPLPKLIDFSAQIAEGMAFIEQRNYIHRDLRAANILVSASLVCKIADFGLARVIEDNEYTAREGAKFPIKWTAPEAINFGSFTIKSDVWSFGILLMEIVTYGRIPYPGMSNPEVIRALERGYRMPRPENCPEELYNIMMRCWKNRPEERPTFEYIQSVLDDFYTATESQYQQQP
# Experimental details: phosphorylation enrichment, bacterial display (enrichment ratio); higher = better substrate or ligand; peptides without Tyr show the background
# Lookup of reported phosphorylation enrichment keyed by entry
// return just the number, without any unit appended

Observe how each entry below is paired with its result.
>>> data_value("LKFAIYFEVRE [LAMA2_Y1258_A1261V_YF]")
0.569
>>> data_value("RVLQLYGCSPS [ASTL_Y279_K277Q]")
2.33
>>> data_value("ENPAKYDDIKK [GAPDH_Y255_K251N]")
0.412

Recorded result, LKLIQYHLIQQ [AKAP4_Y554_T557I] , phosphorylation enrichment: 0.659

// recorded phosphorylation enrichment for EREFKYGAHNF [OAT_Y50_YF] : 0.386

Sure, the documented phosphorylation enrichment for GGGGGYNRSSG [FUS_Y232] is 0.419

phosphorylation enrichment reading for GKSHIYFWTLE [EML2_Y230] : 0.538

----------
SH2 binding enrichment values by entry
# Study system: Grb2 SH2 (UniProt P62993)
# Sequence (P62993 whole entry, looked up): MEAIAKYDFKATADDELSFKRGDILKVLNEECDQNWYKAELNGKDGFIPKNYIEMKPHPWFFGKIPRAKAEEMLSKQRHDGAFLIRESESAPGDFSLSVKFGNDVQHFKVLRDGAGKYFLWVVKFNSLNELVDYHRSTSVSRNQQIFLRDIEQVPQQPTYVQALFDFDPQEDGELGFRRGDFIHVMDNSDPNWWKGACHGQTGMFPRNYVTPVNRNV
# Experimental details: SH2 binding enrichment of the phosphorylated peptide, bacterial display (enrichment ratio); higher = better substrate or ligand; peptides without Tyr show the background
Answer as a number with no unit attached.

Worked cases, SH2 binding enrichment given:
>>> data_value("AAVLNYKAWRD [GRIN2A_Y737_G740W]")
1.35
>>> data_value("NKVQFYIPDMN [NCR1_Y84_K82Q]")
0.976
>>> data_value("PDNEPYIFKVF [PIK3AP1_Y553]")
1.1
>>> data_value("PRRRFYVVACD [RNASE3_Y134_G130R]")
0.592
>>> data_value("HNVAIYEGFAL [ACTC1_Y168_P166A_YF]")
0.877
>>> data_value("NNPAFYVLEGV [INPPL1_Y987_YF]")
0.768
>>> data_value("KILGRYYETGS [PAX2_Y72]")
0.951
>>> data_value("NRLTDYYEPLL [BBS10_Y536]")
0.788

Reported SH2 binding enrichment of LYVDVYGPSVP [NUBPL_Y109_D105Y] : 0.705

The sequence identified as IGKAGYTDKVV [ENO1_Y236] registered its SH2 binding enrichment at 0.757

Form field SH2 binding enrichment, entry SVVVPYETPEV [TP53_Y220_P222T] : 0.827

Value of measured SH2 binding enrichment for the entry WQLEIYRASRP [ERCC4_Y594_R589W] : 0.717

Just so you know, measured SH2 binding enrichment for ADSLRYIFPKL [EIF2B3_Y92_YF] came out at 0.966

The value of SH2 binding enrichment measured for the sequence TIMTNYNPNYC [ALK_Y1092_D1091N] turned out to be 1.12

----------
# Study system: EPHB1 (UniProt P54762)
# Sequence (P54762 whole entry, looked up): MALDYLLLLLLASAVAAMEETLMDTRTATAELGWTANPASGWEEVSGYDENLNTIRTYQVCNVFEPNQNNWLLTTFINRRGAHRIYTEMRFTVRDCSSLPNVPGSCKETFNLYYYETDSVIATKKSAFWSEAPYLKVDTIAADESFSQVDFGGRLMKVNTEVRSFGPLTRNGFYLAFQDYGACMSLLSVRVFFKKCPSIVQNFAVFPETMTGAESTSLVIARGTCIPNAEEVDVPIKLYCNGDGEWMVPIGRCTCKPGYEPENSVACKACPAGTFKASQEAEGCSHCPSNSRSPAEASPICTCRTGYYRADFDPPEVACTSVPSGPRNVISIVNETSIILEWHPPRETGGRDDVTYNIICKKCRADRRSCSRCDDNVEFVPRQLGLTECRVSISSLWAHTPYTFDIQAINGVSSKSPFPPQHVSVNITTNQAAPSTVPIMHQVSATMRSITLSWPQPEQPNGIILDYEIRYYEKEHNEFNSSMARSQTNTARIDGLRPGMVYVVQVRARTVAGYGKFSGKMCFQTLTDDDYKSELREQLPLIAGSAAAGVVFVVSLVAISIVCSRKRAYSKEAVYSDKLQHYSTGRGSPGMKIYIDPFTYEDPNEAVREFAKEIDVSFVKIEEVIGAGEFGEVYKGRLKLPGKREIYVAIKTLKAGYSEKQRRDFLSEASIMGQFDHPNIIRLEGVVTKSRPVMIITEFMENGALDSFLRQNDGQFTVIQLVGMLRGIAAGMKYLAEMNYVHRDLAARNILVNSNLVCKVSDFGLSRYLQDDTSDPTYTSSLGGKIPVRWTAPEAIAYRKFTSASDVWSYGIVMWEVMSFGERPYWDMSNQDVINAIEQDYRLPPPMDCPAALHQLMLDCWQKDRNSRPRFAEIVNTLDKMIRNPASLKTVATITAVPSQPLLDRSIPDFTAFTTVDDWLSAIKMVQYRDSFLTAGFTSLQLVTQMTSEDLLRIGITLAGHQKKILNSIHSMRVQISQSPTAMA
# Experimental details: phosphorylation enrichment, bacterial display (enrichment ratio); higher = better substrate or ligand; peptides without Tyr show the background
# reported phosphorylation enrichment; entries follow
Output: the number by itself.

>>> data_value("FKEIVYAVSSD [DCX_Y70_G67E]")
0.455
>>> data_value("ESMNIYLQTSP [NAT1_Y208_T207I]")
0.752
>>> data_value("GEEIKYTLWLS [OTC_Y55_M56T]")
0.704
>>> data_value("KGNMYYENSYA [EGFR_Y113_R108K]")
0.629

// phosphorylation enrichment lookup, sequence = LEIETYRRLRD [KRT12_Y429_L433R] , result: 0.533

According to the records, this sequence DEDEEYEYMNR [ERBB3_Y1197] displays phosphorylation enrichment of 0.587

What the record says about FPSLPYSPVSS [CAMKK2_Y128_C123Y_YF] : phosphorylation enrichment is 0.452

Documented phosphorylation enrichment of HFGCVYYGTLL [MET_Y1093_H1094Y] : 1.5

Entry LLREWYLPDPY [SIX3_Y225_Q227P] ; phosphorylation enrichment = 0.541

----------
Listed below: phosphorylation enrichment values for each entry.
# Study system: FGFR3 (UniProt P22607)
# Sequence (P22607 whole entry, looked up): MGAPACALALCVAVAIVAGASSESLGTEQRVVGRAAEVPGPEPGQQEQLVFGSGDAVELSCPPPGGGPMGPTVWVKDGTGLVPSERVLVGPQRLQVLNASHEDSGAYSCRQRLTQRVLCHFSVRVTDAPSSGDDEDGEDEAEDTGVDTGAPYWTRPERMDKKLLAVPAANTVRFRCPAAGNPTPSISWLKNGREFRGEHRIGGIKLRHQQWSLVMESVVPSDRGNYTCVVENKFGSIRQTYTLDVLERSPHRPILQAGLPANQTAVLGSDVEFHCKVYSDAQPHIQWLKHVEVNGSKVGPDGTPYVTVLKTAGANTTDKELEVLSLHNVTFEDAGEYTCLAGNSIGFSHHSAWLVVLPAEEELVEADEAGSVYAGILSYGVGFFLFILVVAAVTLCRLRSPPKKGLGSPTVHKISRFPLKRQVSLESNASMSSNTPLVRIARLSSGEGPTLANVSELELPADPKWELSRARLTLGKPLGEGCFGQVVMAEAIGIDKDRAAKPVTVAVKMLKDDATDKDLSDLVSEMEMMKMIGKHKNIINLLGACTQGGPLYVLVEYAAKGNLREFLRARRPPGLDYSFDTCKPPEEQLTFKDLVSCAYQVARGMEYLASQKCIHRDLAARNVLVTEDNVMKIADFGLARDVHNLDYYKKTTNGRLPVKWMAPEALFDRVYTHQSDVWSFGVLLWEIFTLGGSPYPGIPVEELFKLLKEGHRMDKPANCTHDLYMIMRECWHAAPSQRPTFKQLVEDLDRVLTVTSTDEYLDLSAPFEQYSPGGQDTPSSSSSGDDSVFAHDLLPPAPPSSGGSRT
# Experimental details: phosphorylation enrichment, bacterial display (enrichment ratio); higher = better substrate or ligand; peptides without Tyr show the background

Solved cases (5 shown):
>>> data_value("HPFNSYTFPRL [PAK5_Y316_S312P_YF]")
0.786
>>> data_value("RMETAYGPSVT [MXRA5_Y2717_E2716A]")
0.529
>>> data_value("DRLASNLDKVR [KRT10_Y160_Y160N]")
0.348
>>> data_value("NVTRKYSRQIL [MAP3K2_Y463_T464S]")
0.352
>>> data_value("RSAGKDDVFLI [MECP2_Y120_Y120D_YF]")
0.894

Looking up CKLFQYFLDHL [ATRX_Y1849_YF] , I found its phosphorylation enrichment recorded as 0.873

Record LYSINYLHFGD [KDM4C_Y201_E206D] , field phosphorylation enrichment: 3.85

Quick note, phosphorylation enrichment for HDKEFYSVHNK [MET_Y1235_Y1230H_YF] landed at 0.549

Item: REAAAYPHGRL [AGXT_Y297_L298P] | phosphorylation enrichment: 0.41

According to the records, this sequence DSILVYQGKEQ [USH2A_Y1909] displays phosphorylation enrichment of 0.533

// ESDFPYSSSFE [SRPK2_Y427_T426P_YF] : phosphorylation enrichment value = 0.692

// phosphorylation enrichment lookup, sequence = SHSMRYFSTAV [HLA-C_Y31_D33S] , result: 0.569

Entry PELINCHQHNS [BTK_Y361_Y361C] ; phosphorylation enrichment = 0.7
